- TEST_TARGET: T1, recombinant human domain 1-3His6 of the cation-independent mannose-6-phosphate receptor (human, UniProt P11717 41-467)
- T1 construct: Biotinylated (NHS-PEG4-biotin) for BLI; Glycosylated; also called hDom1-3His6; hCI-M6PRD1-D3
- ASSAY_DETAILS: BLI exp 2, dissoc pH 5
Give measured koff for each item. Keep answers brief.
Kindly write the number and append the unit.

# return recorded koff for input anti-CI-M6PR VHH9 (VHH, His6-tagged; made in Pichia pastoris) VHH: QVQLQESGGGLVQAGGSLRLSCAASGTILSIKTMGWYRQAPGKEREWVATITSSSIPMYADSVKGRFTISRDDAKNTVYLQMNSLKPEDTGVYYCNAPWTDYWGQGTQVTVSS 0.0496 s⁻¹

Consider the binder anti-CI-M6PR VHH10 (VHH, His6-tagged; made in Pichia pastoris) VHH: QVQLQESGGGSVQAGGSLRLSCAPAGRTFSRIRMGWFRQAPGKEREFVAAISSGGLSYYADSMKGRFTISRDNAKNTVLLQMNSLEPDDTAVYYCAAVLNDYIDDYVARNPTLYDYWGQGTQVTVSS . State its measured koff. 0.0106 s⁻¹

Return the recorded koff value; entry: anti-CI-M6PR VHH1 (VHH, His6-tagged; made in Pichia pastoris, later also in E. coli WK6) VHH: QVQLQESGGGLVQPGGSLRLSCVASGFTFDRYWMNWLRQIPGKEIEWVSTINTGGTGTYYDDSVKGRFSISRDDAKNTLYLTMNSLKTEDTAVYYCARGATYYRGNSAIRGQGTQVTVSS 0.072 s⁻¹

Give the measured koff for anti-CI-M6PR VHH2 (VHH, His6-tagged; made in Pichia pastoris) VHH: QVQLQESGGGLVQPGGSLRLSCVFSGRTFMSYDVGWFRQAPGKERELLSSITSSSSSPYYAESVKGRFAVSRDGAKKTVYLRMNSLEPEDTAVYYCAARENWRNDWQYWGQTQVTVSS 0.074 s⁻¹
